- Test system: CA46, K-562, MOLT-4, and RPMI-8226
Non-standard residues stand in square brackets, D forms with d. Residues, ends and D or L forms follow the SMILES beside them. *: point of attachment. NMe2Val = CC(C)[C@@H](C(=O)*)N(C)C; NMeV = CN[C@H](C(=O)O)C(C)C; NHtBu = CC(C)(C)N*
MEASURED_ATTRIBUTE: IC50

1. CC(C)[C@H](NC(=O)[C@H](C(C)C)N(C)C)C(=O)N(C)[C@H](C(=O)N1CCC[C@H]1C(=O)N1CCC[C@H]1C(=O)NC(C)(C)C)C(C)C [Tasidotin] (NMe2Val-V[NMeV]PP-NHtBu) : 100 to 300 nM
